Taken from patent US9856216B2.

# tgt: TNIK (Homo sapiens)
# Construct: purchased Promega V4158
# Sequence (Q9UKE5 1-367 limits assumed): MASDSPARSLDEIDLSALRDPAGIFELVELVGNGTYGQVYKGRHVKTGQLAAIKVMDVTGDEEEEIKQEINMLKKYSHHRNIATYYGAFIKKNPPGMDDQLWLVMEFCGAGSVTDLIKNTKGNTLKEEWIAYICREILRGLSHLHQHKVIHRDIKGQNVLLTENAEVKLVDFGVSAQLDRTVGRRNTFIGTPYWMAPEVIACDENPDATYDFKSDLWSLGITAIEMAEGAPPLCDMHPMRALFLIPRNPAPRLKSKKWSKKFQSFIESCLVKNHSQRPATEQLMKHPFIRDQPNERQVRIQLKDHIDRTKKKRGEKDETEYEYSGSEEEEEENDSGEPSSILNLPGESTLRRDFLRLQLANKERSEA
# assayProtocol: ADP-Glo Kinase Assay, inhibition activity on TNIK
# Assay type: biochemical
# experimentalSetup: read-out: TNIK
# Description: The inhibition activities on TNIK, IKKε and TBK1 were measured by a luminometer, TNIK/IKKε/TBK1 Kinase Enzyme System (Promega, Ca# V4158; Invitrogen, PR8031B, Promega, Ca# V3991) and ADP-Glo Kinase Assay using ADP-Glo™ Kinase Analysis Kit (Promega, Ca# V9101) and a kinase reaction buffer [40 mM Tris(pH 7.5), 20 mM MgCl2, 0.1 mg/mL BSA] in accordance with the manufacturer's protocol.
Label scheme, based on IC50: c1 = under 500 nM, c2 = from 500 nM up to 2000 nM, c3 = 2000 nM and over

Class label required: `Cc1csc(C(=O)Nc2ccc(-c3ccccc3)c3c2C(=O)NC3)c1`
c3

Category lookup for the compound `CCCCc1ccc(NC(=O)c2ccccc2)c2c1CNC2=O`
c3

Please indicate the class for `COc1ccccc1C(=O)Nc1ccc(Nc2ccccc2)c2c1C(=O)NC2` based on its IC50.
c3

Sort into band: `COc1cccc(-c2ccc(NC(=O)c3ccccc3)c3c2CNC3=O)c1`
c2

Form: Item = `O=C(Nc1ccc(-c2ccco2)c2c1C(=O)NC2)c1ccc(NCCN2CCCCCC2)cc1` ; Class = ?
c1

Band assignment needed for `O=C(Nc1ccc(C(=O)O)c2c1C(=O)NC2)c1ccc(F)cc1` please.
c3

Sort into band: `O=C(Nc1ccc(-c2cccs2)c2c1C(=O)NC2)c1ccccc1`
c2

Band for `O=C(Nc1cccc(F)c1)Nc1ccc(-c2ccccc2)c2c1C(=O)NC2` ?
c3

Place this compound in its band: `Cc1cccc(Nc2ccc(NC(=O)c3ccc(NCCN4CCCC4)cc3)c3c2CNC3=O)c1C`
c1

Into which bin does this compound go? `O=C(Nc1ccc(-c2ccnc3ccccc23)c2c1C(=O)NC2)c1ccc(F)cc1`
c1

Consider `COC(=O)c1ccccc1-c1ccc(NC(=O)c2ccccc2)c2c1CNC2=O` . To which IC50 class does it belong?
c3

Category of `COC(=O)c1cccc(-c2ccc(NC(=O)c3ccccc3)c3c2CNC3=O)c1` :
c3

Class label required: `Cc1ccccc1Nc1ccc(NC(=O)c2ccc(NCCN3CCCC3)cc2)c2c1CNC2=O`
c1

Exam item: assign `O=C(Nc1ccc(-c2ccccc2)c2c1C(=O)NCC2)c1ccc(NCCN2CCCC2)cc1` to the correct category.
c3

Bin this entry: `COc1cccc(-c2ccc(NC(=O)c3ccc(NCCCN4CCCC4)cc3)c3c2CNC3=O)c1OC`
c1

Band of `COc1ccccc1-c1ccc(NC(=O)c2ccc(NC(C)=O)cc2)c2c1CNC2=O` ?
c1

Lab note: which band did `O=C(Nc1ccccc1)Nc1ccc(-c2ccc(F)cc2)c2c1C(=O)NC2` land in?
c3

Which of the defined bands does the recorded IC50 of `COc1cccc(C(=O)Nc2ccc(Nc3ccccc3)c3c2C(=O)NC3)c1` sit within?
c2

Band of `CNc1ccc(C(=O)Nc2ccc(-c3ccccc3)c3c2C(=O)NC3)cc1` ?
c2

# bin lookup: classify `CN(C)c1ccccc1-c1ccc(NC(=O)c2ccccc2)c2c1CNC2=O` by its IC50
c3

Which class does `O=C1NCc2c(-c3ccccc3)ccc(NS(=O)(=O)c3ccccc3)c21` fall in?
c3
